- procedure summary: Polymorphism screen of hydrochloride and benzoate salts: thermal cycling, evaporation, antisolvent addition, cooling (XRPD)
- Assay type: physicochemical
- condition parameters: thermal cycle of lyophilised hydrochloride salt (~40 mg), solvent added; solvent per experiment: -01 1,4-Dioxane, -02 1-Propanol, -03 2-Butanol, -04 2-Ethoxyethanol, -05 2-Methyltetrahydrofuran, -06 2-Propanol, -07 Acetone, -08 Acetonitrile, -09 Anisole, -10 Chlorobenzene, -11 Ethanol, -12 Ethyl acetate, -13 Isopropyl acetate, -14 Methanol, -15 Propyl acetate, -16 Methylethyl ketone, -17 Formamide
- Protocol: Twenty five of the lyophilised samples were treated with solvent and thermally cycled between ambient and 40° C. with four hours spent under each condition. After three days and solids were isolated by centrifuge filtration and analysed by XRPD. […] For antisolvent additions thirteen samples of the lyophilised material were dissolved in a small amount of hot solvent (^˜0.5 ml). […] Any solids were isolated by centrifuge filtration and analysed by XRPD. […]
assay endpoint: Initial Observations

{"columns": ["molecule", "assay endpoint", "readout value"],
 "data": [
  ["COc1ccc2[nH]cc(CCN(C)C)c2c1.Cl [DJP2202-007-22]", "Initial Observations", "no change"],
  ["COc1ccc2[nH]cc(CCN(C)C)c2c1.Cl [DJP2202-007-20]", "Initial Observations", "no change"],
  ["COc1ccc2[nH]cc(CCN(C)C)c2c1.Cl [DJP2202-007-02]", "Initial Observations", "no change"]
]}

Origin of values: patent US11773063B1
